assay: Cytotoxicity against human H9 cells assessed as reduction in cell viability after 7 days by MTT assay; format: cell-based
Mark true only for CC50 at 168 h values smaller than 300 µM; exact matches and larger values are false.

{"chemical-string": "COc1ccccc1NC(=O)c1cccnc1Sc1ccc([N+](=O)[O-])cc1", "class-name": "false"}
{"chemical-string": "COc1ccccc1NC(=O)c1c(NCCO)cccc1S(=O)(=O)c1ccc([N+](=O)[O-])cc1", "class-name": "true"}
{"chemical-string": "COc1ccccc1NC(=O)c1c(NCCO)cccc1Sc1ccc([N+](=O)[O-])cc1", "class-name": "true"}
{"chemical-string": "COc1ccccc1NC(=O)c1cc(Cl)ccc1Sc1ccc([N+](=O)[O-])cc1", "class-name": "false"}

----------
assay: Cytotoxicity against human H9 cells assessed as reduction in cell viability after 7 days by MTT assay; type: cell-based
I'd appreciate it if you could label each record using CC50 at 168 h and these ranges: 0 (below 200 µM), 1 (200 µM to below 400 µM), 2 (400 µM or more)

{"compound": "COc1ccccc1NC(=O)c1c(NC(=O)C(N)Cc2ccccc2)cccc1S(=O)(=O)c1ccc([N+](=O)[O-])cc1 (stereo not drawn)", "class-name": 1}
{"compound": "COc1ccccc1NC(=O)c1sccc1Sc1ccc([N+](=O)[O-])cc1", "class-name": 2}
{"compound": "COc1ccccc1NC(=O)c1c(N(C)C)cccc1S(=O)(=O)c1ccc([N+](=O)[O-])cc1", "class-name": 2}
{"compound": "COc1ccccc1C(=O)Nc1nc(Cl)ncc1Sc1ccc([N+](=O)[O-])cc1", "class-name": 2}
{"compound": "COc1ccccc1NC(=O)c1cc(NC(C)=O)ccc1Sc1ccc([N+](=O)[O-])cc1", "class-name": 0}
{"compound": "COc1ccccc1NC(=O)c1c(Sc2ccc([N+](=O)[O-])cc2)cccc1N1CCNCC1", "class-name": 0}
{"compound": "COc1ccccc1NC(=O)c1c(NS(=O)(=O)c2ccc(C)cc2)cccc1Sc1ccc([N+](=O)[O-])cc1", "class-name": 1}
{"compound": "COc1ccccc1NC(=O)c1cscc1Sc1ccc([N+](=O)[O-])cc1", "class-name": 2}
{"compound": "COc1ccccc1NC(=O)c1c(NCC(N)=O)cccc1Sc1ccc([N+](=O)[O-])cc1", "class-name": 0}
{"compound": "COc1ccccc1NC(=O)c1c(N)cccc1Sc1ccc([N+](=O)[O-])cc1", "class-name": 1}
{"compound": "COc1ccccc1NC(=O)c1c(NCCN)cccc1S(=O)(=O)c1ccc([N+](=O)[O-])cc1", "class-name": 1}
{"compound": "COc1ccccc1NC(=O)c1cc(N(C)C)ccc1Sc1ccc([N+](=O)[O-])cc1", "class-name": 0}
{"compound": "COc1ccccc1NC(=O)c1c(N)cccc1S(=O)(=O)c1ccc([N+](=O)[O-])cc1", "class-name": 2}
{"compound": "COc1ccccc1NC(=O)c1cc(F)ccc1Sc1ccc([N+](=O)[O-])cc1", "class-name": 2}
{"compound": "COc1ccccc1NC(=O)c1c(N)cccc1[S+]([O-])c1ccc([N+](=O)[O-])cc1 (stereo not drawn)", "class-name": 1}

----------
system: Human immunodeficiency virus 1; experiment: Antiviral activity against HIV1 subtype B isolate SF162 infected in human PBMC assessed as reduction in p24 level after 7 days by ELISA; assay type: functional; conditions: Human immunodeficiency virus 1, subtype B isolate SF162, 168 h
pEC50: −log10 of the molar value.
observation-type: pEC50

{"chemical-string": "COc1ccccc1NC(=O)c1c(N)cccc1S(=O)(=O)c1ccc([N+](=O)[O-])cc1", "system-under-test": "Human immunodeficiency virus 1", "observation-type": "pEC50", "value": 4.75}

----------
assay: N-octanol/water partition co-efficient, log P of the compound in octanol to water phase ratio of 1:9 up to 7 hrs by shake-flask method; type: physicochemical

{"chemical-string": "COc1ccccc1NC(=O)c1c(N)cccc1S(=O)(=O)c1ccc([N+](=O)[O-])cc1", "logP at 7 h": 2.55}

----------
Items are presented alongside their recorded solubility thermodynamic.
experiment: Aqueous solubility in water after 24 to 72 hrs by HPLC based shake flask method; format: physicochemical
observation-type: solubility thermodynamic (µg/mL)

{"compound": "COc1ccccc1NC(=O)c1c(NC(=O)CN)cccc1S(=O)(=O)c1ccc([N+](=O)[O-])cc1", "value": 1730}
{"compound": "COc1ccccc1NC(=O)c1c(NC(=O)C(N)Cc2ccccc2)cccc1S(=O)(=O)c1ccc([N+](=O)[O-])cc1 (stereo not drawn)", "value": 120}
{"compound": "COc1ccccc1NC(=O)c1c(N)cccc1S(=O)(=O)c1ccc([N+](=O)[O-])cc1", "value": 0.66}

----------
experiment: Solubility in methanol after 24 to 72 hrs by HPLC based shake flask method; assay type: physicochemical

{"chemical-string": "COc1ccccc1NC(=O)c1c(N)cccc1S(=O)(=O)c1ccc([N+](=O)[O-])cc1", "output-unit": "µg/mL", "solubility thermodynamic": 814}

----------
assay: Solubility in acetone after 24 to 72 hrs by HPLC based shake flask method; format: physicochemical
observation-type: solubility thermodynamic (mg/mL)

{"chemical-string": "COc1ccccc1NC(=O)c1c(N)cccc1S(=O)(=O)c1ccc([N+](=O)[O-])cc1", "value": 22.4}

----------
Items are presented alongside their recorded CC50 at 168 h.
test: Cytotoxicity against human H9 cells assessed as reduction in cell viability after 7 days by MTT assay; assay type: cell-based
observation-type: CC50 at 168 h (µM)

{"chemical-string": "COc1ccccc1NC(=O)c1c(N)cccc1Oc1ccc([N+](=O)[O-])cc1", "observation-type": "CC50 at 168 h", "output-unit": "µM", "value": 202}
{"chemical-string": "COc1ccccc1NC(=O)c1c(NC(=O)CN)cccc1S(=O)(=O)c1ccc([N+](=O)[O-])cc1", "observation-type": "CC50 at 168 h", "output-unit": "µM", "value": 196}
{"chemical-string": "CNc1cccc(S(=O)(=O)c2ccc([N+](=O)[O-])cc2)c1C(=O)Nc1ccccc1OC", "observation-type": "CC50 at 168 h", "output-unit": "µM", "value": 200}

Values from ChEMBL document CHEMBL4007447
